// protein stability index lookup, one value per entry
B1: TSN (parent)
chain: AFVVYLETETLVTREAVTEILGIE

- Variants of: B1
- EXPERIMENT NOTES: protein stability index of a GFP-peptide fusion (GPS, HEK-293T) (PSI 1-6); higher = more stable;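 note: lentivirally expressed fusions sorted by FACS into six bins by GFP to DsRed ratio, PSI derived from sequencing read proportions per bin multiplied by bin number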
- SETUP CONDITIONS: c terminus: a fixed tail appended
Answer as a number with no unit attached.

Use these answered entries as a reference point.
AFVVYLETETLVTREAVTEILVIE [G22V] = 2.04
AFVVYLETEFLVTREAVTEILGIE [T10F] = 3.32
AFVVVLETETLVTREAVTEILGIE [Y5V] = 3.44
AFVVYLETETLVTREAVTEIYGIE [L21Y] = 2.1
AFVVYLLTETLVTREAVTEILGIE [E7L] = 2.42

The recorded protein stability index for AFVVYLETETLVTREAVTEILGVE [I23V] is 3.69

The recorded protein stability index for AFVVYLETETLVTREAVTEIVGIE [L21V] is 3.75

The recorded protein stability index for AFVVYLETETLVVREAVTEILGIE [T13V] is 2.31

The recorded protein stability index for AFVVYLETEKLVTREAVTEILGIE [T10K] is 3.37

The recorded protein stability index for WFVVYLETETLVTREAVTEILGIE [A1W] is 2.42

The recorded protein stability index for AFVVYLETETLVTRYAVTEILGIE [E15Y] is 2.25

Data provenance is the supplement of paper PMC10567573.
